Source of measurements: PubChem BioAssay (NCI)

System: MDA-N
Assay: NCI tumour cell line growth inhibition, 48 h
readout: TGI

Example entries begin here.
CC1=C(C2=C(C)C(=O)C(=O)c3cc(C)ccc32)c2ccc(C)cc2C(=O)C1=O: 0.347 µM
CCCCn1c2c(c3ccccc3c1=O)C(=O)c1ccccc1-2: > 100 µM
CCOC(=O)c1c(C)n(Cc2ccccc2)c2c1cc(O)c1[nH]c3c(c12)CCCC3: 28.2 µM
Cn1c(C(C#N)c2cc(Cl)ncn2)nc2ccccc21 (stereo not given): > 100 µM
Clc1ccc(OCc2nnc3sc(-c4ccc(-c5ccc(Cl)cc5Cl)o4)nn23)c(Cl)c1: 71.3 µM

Each of the following entries comes with a recorded value; kindly state TGI for each.
1. COc1nn(Cc2ccccc2F)c2ccc([N+](=O)[O-])cc12
2. O=C(O)c1cc2ccccc2c(N=Nc2c([N+](=O)[O-])cc([N+](=O)[O-])cc2S(=O)(=O)O)c1O
3. C=CCN1C(=O)/C(=C/c2ccc(C)cc2)N=C1SC/C=C/C
4. CC(C)(C)c1cc(-c2ccc(-c3cc(C(C)(C)C)c(O)c(C(C)(C)C)c3)cc2)cc(C(C)(C)C)c1O
5. Cn1c(N2CCCC2)c(C=O)c(=O)n(C)c1=O

Reply |
1. > 100 µM
2. > 100 µM
3. > 100 µM
4. > 100 µM
5. > 100 µM
